target: human GLP-1 receptor (human, UniProt P43220 24-463); assay: cell-based or functional assay
Sequence (P43220 24-463): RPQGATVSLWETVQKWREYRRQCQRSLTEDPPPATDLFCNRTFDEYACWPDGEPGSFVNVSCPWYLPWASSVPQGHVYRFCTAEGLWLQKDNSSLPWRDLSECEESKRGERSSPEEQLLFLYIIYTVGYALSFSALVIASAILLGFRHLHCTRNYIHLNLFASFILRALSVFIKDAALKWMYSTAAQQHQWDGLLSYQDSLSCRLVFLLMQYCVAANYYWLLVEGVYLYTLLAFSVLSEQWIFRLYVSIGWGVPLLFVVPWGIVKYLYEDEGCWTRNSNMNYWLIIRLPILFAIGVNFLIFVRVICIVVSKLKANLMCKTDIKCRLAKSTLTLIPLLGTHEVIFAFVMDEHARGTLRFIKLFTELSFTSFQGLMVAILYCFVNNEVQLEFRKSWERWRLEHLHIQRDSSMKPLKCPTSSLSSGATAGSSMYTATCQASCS
Non-standard residues stand in square brackets, D forms with d. No end group written: not given here. Bip(2'-Et-4'-OMe) = CCc1cc(OC)ccc1-c1ccc(C[C@H](N)C(=O)O)cc1; Leu(5,5,5,5',5',5'-F6) = N[C@@H](CC(C(F)(F)F)C(F)(F)F)C(=O)O; Nva(5-(3,5-Me2Ph)) = Cc1cc(C)cc(CCC[C@H](N)C(=O)O)c1; 2F‑APPA = 2-amino-5-(2-fluorophenyl)pentanoic acid; αMePhe(2-F) = C[C@](N)(Cc1ccccc1F)C(=O)O; NMeBip(OMe) = N-methylated Bip(OMe); hhPhe = N[C@@H](CCCc1ccccc1)C(=O)O; αMeF = C[C@](N)(Cc1ccccc1)C(=O)O; NMeD = CN[C@@H](CC(=O)O)C(=O)O; aThr = C[C@H](O)[C@H](N)C(=O)O; NMeAPPA = not defined here; CNB = not defined here; Aib = CC(C)(N)C(=O)O
// classify: if (cAMP release, % activity, 1 nM < 50%) met else not met

Record excerpt, results attached:
H[Aib][CNB]G[aThr][αMePhe(2-F)]TSD[Bip(2'-Et-4'-OMe)][2F‑APPA] (reading uncertain) [Seq. ID. No. 112: H-Aib-(CNB)-G-T(allo)-(α-Me-2F-Phe)-TSD-Bip(OMe)-(2F-APPA)] ... met
H[Aib][Leu(5,5,5,5',5',5'-F6)]GT[αMeF]TSD[Bip(2'-Et-4'-OMe)][hhPhe] [Seq. ID. No. 230: H-Aib-(Hfl)-GT-(α-Me-Phe)-TSD-Bip(OMe)-(APPA)] ... not met
H[Aib][CNB]G[aThr][αMePhe(2-F)][aThr]S[NMeD][NMeBip(OMe)][NMeAPPA] (reading uncertain) [Seq. ID. No. 154: H-Aib-(CNB)-G-T(allo)-(α-Me-2F-Phe)-T(allo)-S-(NMe)D-((NMe)Bip(OMe))-((NMe)(APPA))] ... not met

query: Could you please tell me whether cAMP release, % activity, 1 nM recorded for Ac-H[Aib]QG[aThr][αMePhe(2-F)][aThr]SD[Bip(2'-Et-4'-OMe)][hhPhe] (also: reduced (CH2) bond between 10 and 11) [Seq. ID. No. 185: CH3CO-H-Aib-QG-T(allo)-(α-Me-2F-Phe)-T(allo)-SD-Bip(OMe)-(CH2)-(APPA)] is less than 50%?
result: met

query: Could you please tell me whether cAMP release, % activity, 1 nM recorded for H[Aib][CNB]GTFTSD[Bip(2'-Et-4'-OMe)][Nva(5-(3,5-Me2Ph))] (reading uncertain) [Seq. ID. No. 30: H-Aib-(CNB)-GTFTSD-Bip(OMe)-(ADMP)] is less than 50%?
result: met
